Biological target: β2-GPI (Homo sapiens)
Construct: β2-GPI was purified from normal human plasma as described in [35] with slight modification; from tissue; host or cells: pooled normal human plasma from healthy subjects
Sequence (P02749 20-345): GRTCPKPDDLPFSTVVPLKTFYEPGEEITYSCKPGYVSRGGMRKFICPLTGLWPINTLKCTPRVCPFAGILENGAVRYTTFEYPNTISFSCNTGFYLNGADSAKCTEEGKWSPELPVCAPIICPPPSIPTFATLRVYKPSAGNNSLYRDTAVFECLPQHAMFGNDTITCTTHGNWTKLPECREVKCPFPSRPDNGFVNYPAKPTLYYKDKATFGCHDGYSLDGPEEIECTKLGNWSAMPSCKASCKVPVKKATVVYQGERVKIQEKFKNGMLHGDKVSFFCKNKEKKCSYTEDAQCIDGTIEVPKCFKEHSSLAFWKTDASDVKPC
Assay: ELISA on solid-phase lipid (ligand)-coated plate: β2-GPI binding detected with Cof-22
Details: absorbance at 490 nm, mean ± SD (n = 3); solid-phase ligand not methylated
Parameter β2-GPI binding (Cof-22 binding), No treatment: see the listing below.
RESULT TYPE: β2-GPI binding (Cof-22 binding), No treatment

>>> reading("CC(C)CCC[C@@H](C)[C@H]1CC[C@H]2[C@@H]3C(=O)C=C4C[C@@H](OC(=O)CCCCCCCCCCCC(=O)O)CC[C@]4(C)[C@H]3CC[C@]12C")
"1.303 +/− 0.049"
>>> reading("CC(C)CCC[C@@H](C)[C@H]1CC[C@H]2[C@@H]3C(=O)C=C4C[C@@H](OC(=O)CCCCCCCC(=O)CCC(=O)O)CC[C@]4(C)[C@H]3CC[C@]12C")
"1.002 +/− 0.084"
>>> reading("CC(C)CCC[C@@H](C)[C@H]1CC[C@H]2[C@@H]3C(=O)C=C4C[C@@H](OC(=O)CCCCCCCC(=O)O)CC[C@]4(C)[C@H]3CC[C@]12C")
"1.307 +/− 0.105"
>>> reading("CCCCC/C=C\\C/C=C\\CCCCCCCC(=O)O[C@H]1CC[C@@]2(C)C(=CC[C@H]3[C@@H]4CC[C@H]([C@H](C)CCCC(C)C)[C@@]4(C)CC[C@@H]32)C1 [Cholesteryl linoleate, reference compound]")
"0.061 +/− 0.005"

###

Test system: WB-CAL-1
Assay: ELISA on solid-phase lipid (ligand)-coated plate: WB-CAL-1 binding in presence of β2-GPI
Design: species or system mouse
Details: absorbance at 490 nm, mean ± SD (n = 3); solid-phase ligand not methylated
Parameter WB-CAL-1 binding, No treatment: see the listing below.
RESULT TYPE: WB-CAL-1 binding, No treatment

>>> reading("CCCCC/C=C\\C/C=C\\CCCCCCCC(=O)O[C@H]1CC[C@@]2(C)C(=CC[C@H]3[C@@H]4CC[C@H]([C@H](C)CCCC(C)C)[C@@]4(C)CC[C@@H]32)C1 [Cholesteryl linoleate, reference compound]")
"0.056 +/− 0.002"
>>> reading("CC(C)CCC[C@@H](C)[C@H]1CC[C@H]2[C@@H]3C(=O)C=C4C[C@@H](OC(=O)CCCCCCCCCCCC(=O)O)CC[C@]4(C)[C@H]3CC[C@]12C")
"0.336 +/− 0.027"
>>> reading("CC(C)CCC[C@@H](C)[C@H]1CC[C@H]2[C@@H]3C(=O)C=C4C[C@@H](OC(=O)CCCCCCCC(=O)O)CC[C@]4(C)[C@H]3CC[C@]12C")
"0.945 +/− 0.068"
>>> reading("CC(C)CCC[C@@H](C)[C@H]1CC[C@H]2[C@@H]3C(=O)C=C4C[C@@H](OC(=O)CCCCCCCC(=O)CCC(=O)O)CC[C@]4(C)[C@H]3CC[C@]12C")
"0.518 +/− 0.023"

###

Parameter EY2C9 binding, No treatment: see the listing below.
Tested on: EY2C9
Assay: ELISA on solid-phase lipid (ligand)-coated plate: EY2C9 binding in presence of β2-GPI
Set-up: species or system human
Details: absorbance at 490 nm, mean ± SD (n = 3); solid-phase ligand not methylated
RESULT TYPE: EY2C9 binding, No treatment

>>> reading("CC(C)CCC[C@@H](C)[C@H]1CC[C@H]2[C@@H]3C(=O)C=C4C[C@@H](OC(=O)CCCCCCCCCCCC(=O)O)CC[C@]4(C)[C@H]3CC[C@]12C")
"1.062 +/− 0.040"
>>> reading("CC(C)CCC[C@@H](C)[C@H]1CC[C@H]2[C@@H]3C(=O)C=C4C[C@@H](OC(=O)CCCCCCCC(=O)CCC(=O)O)CC[C@]4(C)[C@H]3CC[C@]12C")
"1.018 +/− 0.121"
>>> reading("CCCCC/C=C\\C/C=C\\CCCCCCCC(=O)O[C@H]1CC[C@@]2(C)C(=CC[C@H]3[C@@H]4CC[C@H]([C@H](C)CCCC(C)C)[C@@]4(C)CC[C@@H]32)C1 [Cholesteryl linoleate, reference compound]")
"0.074 +/− 0.012"
>>> reading("CC(C)CCC[C@@H](C)[C@H]1CC[C@H]2[C@@H]3C(=O)C=C4C[C@@H](OC(=O)CCCCCCCC(=O)O)CC[C@]4(C)[C@H]3CC[C@]12C")
"1.458 +/− 0.062"

###

Target: β2-GPI (Homo sapiens)
Construct: β2-GPI was purified from normal human plasma as described in [35] with slight modification; from tissue; host or cells: pooled normal human plasma from healthy subjects
Assay: ELISA on solid-phase lipid (ligand)-coated plate: β2-GPI binding detected with Cof-22
Conditions: result in words (discussion)
RESULT TYPE: β2-GPI binding to lipid

>>> reading("CC(C)CCC[C@@H](C)[C@H]1CC[C@H]2[C@@H]3C(=O)C=C4C[C@@H](OC(=O)CCCCCCCC(=O)CCC(=O)O)CC[C@]4(C)[C@H]3CC[C@]12C [oxLig-2]")
"significant bonding"
>>> reading("CC(C)CCC[C@@H](C)[C@H]1CC[C@H]2[C@@H]3C(=O)C=C4C[C@@H](O)CC[C@]4(C)[C@H]3CC[C@]12C [7-ketocholesterol, 5-cholesten-3β-ol-7-one, reference compound]")
"did not bind"
>>> reading("CC(C)CCC[C@@H](C)[C@H]1CC[C@H]2[C@@H]3CC=C4C[C@@H](O)CC[C@]4(C)[C@H]3CC[C@]12C [cholesterol, Cholesterol, reference compound]")
"did not bind"
>>> reading("CCCCC/C=C\\C/C=C\\CCCCCCCC(=O)O[C@H]1CC[C@@]2(C)C(=CC[C@H]3[C@@H]4CC[C@H]([C@H](C)CCCC(C)C)[C@@]4(C)CC[C@@H]32)C1 [Cholesteryl linoleate, reference compound]")
"did not bind"
>>> reading("CC(C)CCC[C@@H](C)[C@H]1CC[C@H]2[C@@H]3C(=O)C=C4C[C@@H](OC(=O)CCCCCCCCCCCC(=O)O)CC[C@]4(C)[C@H]3CC[C@]12C [13-COOH-7KC]")
"significant bonding"
>>> reading("CC(C)CCC[C@@H](C)[C@H]1CC[C@H]2[C@@H]3C(=O)C=C4C[C@@H](OC(=O)CCCCCCCC(=O)O)CC[C@]4(C)[C@H]3CC[C@]12C [oxLig-1]")
"significant bonding"

###

Test system: anti-β2-GPI antibodies
Assay: ELISA of the anti-β2-GPI antibodies by use of a ligand-coated plate (results in words)
Format: binding
Details: ligand-coated plate, result in words
RESULT TYPE: binding of the anti-β2-GPI autoantibodies (WB-CAL-1 and EY2C9) to solid-phase ligand

>>> reading("CC(C)CCC[C@@H](C)[C@H]1CC[C@H]2[C@@H]3C(=O)C=C4C[C@@H](OC(=O)CCCCCCCC(=O)CCC(=O)O)CC[C@]4(C)[C@H]3CC[C@]12C")
"significant binding"
>>> reading("CC(C)CCC[C@@H](C)[C@H]1CC[C@H]2[C@@H]3C(=O)C=C4C[C@@H](OC(=O)CCCCCCCC(=O)O)CC[C@]4(C)[C@H]3CC[C@]12C")
"significant binding"
>>> reading("CC(C)CCC[C@@H](C)[C@H]1CC[C@H]2[C@@H]3C(=O)C=C4C[C@@H](OC(=O)CCCCCCCCCCCC(=O)O)CC[C@]4(C)[C@H]3CC[C@]12C")
"significant binding"
